Source listed as patent US11479587B2.

The following compounds are listed with their measured MIC, C. albicans ATCC 90028 values.
# System: C. albicans ATCC 928
# settings: ATCC 928
Non-standard residues stand in square brackets, D forms with d. Residues, ends and D or L forms follow the SMILES beside them. *: point of attachment. Palmitoyl = CCCCCCCCCCCCCCCC(=O)*; Dap = NC[C@H](N)C(=O)O

Sample records with MIC, C. albicans ATCC 90028:
compound: CCCCCCCCCCCCCCCC(=O)NCC(=O)N[C@@H](CCCNC(=N)N)C(=O)NCC(=O)N[C@@H](CCCNC(=N)N)C(=O)O [Pal-GR4, Pal-GRGR] (HELM PEPTIDE1{[CCCCCCCCCCCCCCCC(=O)[*:2]].G.R.G.R}$$$$V2.0)
obsValue: ≥8 µg/mL

compound: CCCCCCCCCCCCCCCC(=O)NCC(=O)N[C@@H](CCCNC(=N)N)C(=O)N[C@@H](CCCNC(=N)N)C(=O)NCC(=O)NCC(=O)N[C@@H](CCCNC(=N)N)C(=O)NCC(=O)NCC(=O)N[C@@H](CCCNC(=N)N)C(=O)NCC(=O)N[C@@H](CCCNC(=N)N)C(=O)O [Pal-GR11] (HELM PEPTIDE1{[CCCCCCCCCCCCCCCC(=O)[*:2]].G.R.R.G.G.R.G.G.R.G.R}$$$$V2.0)
obsValue: ≥4 µg/mL

compound: CCCCCCCCCCCCCCCC(=O)NCC(=O)N[C@@H](CN)C(=O)NCC(=O)N[C@@H](CN)C(=O)O [Pal-GDap4, Pal-GDapGDap] (Palmitoyl-G[Dap]G[Dap]-OH)
obsValue: ≥8 µg/mL

Record summary for CCCCCCCCCCCCCCCC(=O)NCC(=O)N[C@@H](CCCNC(=N)N)C(=O)N[C@@H](CCCNC(=N)N)C(=O)NCC(=O)NCC(=O)N[C@@H](CCCNC(=N)N)C(=O)NCC(=O)NCC(=O)N[C@@H](CCCNC(=N)N)C(=O)NCC(=O)N[C@@H](CCCNC(=N)N)C(=O)NCC(=O)N[C@@H](CCCNC(=N)N)C(=O)O [Pal-GR13] (HELM PEPTIDE1{[CCCCCCCCCCCCCCCC(=O)[*:2]].G.R.R.G.G.R.G.G.R.G.R.G.R}$$$$V2.0) : reported MIC, C. albicans ATCC 90028 = ≥4 µg/mL

MIC, C. albicans ATCC 90028 recorded for this compound, CCCCCCCCCCCCCCCC(=O)NCC(=O)N[C@H](CCCNC(=N)N)C(=O)N[C@H](CCCNC(=N)N)C(=O)NCC(=O)NCC(=O)N[C@H](CCCNC(=N)N)C(=O)NCC(=O)NCC(=O)N[C@H](CCCNC(=N)N)C(=O)NCC(=O)N[C@H](CCCNC(=N)N)C(=O)NCC(=O)N[C@H](CCCNC(=N)N)C(=O)O [D-Pal-GR13] (HELM PEPTIDE1{[CCCCCCCCCCCCCCCC(=O)[*:2]].G.[dR].[dR].G.G.[dR].G.G.[dR].G.[dR].G.[dR]}$$$$V2.0) , is ≥8 µg/mL

Short answer for CCCCCCCCCCCCCCCC(=O)N[C@@H](CO)C(=O)N[C@@H](Cc1c[nH]cn1)C(=O)N[C@@H](Cc1c[nH]cn1)C(=O)N[C@@H](CCCNC(=N)N)C(=O)N[C@@H](CS)C(=O)N[C@@H](CS)C(=O)N[C@@H](CCCNC(=N)N)C(=O)N[C@@H](CO)C(=O)N[C@@H](Cc1c[nH]cn1)C(=O)N[C@@H](CCCNC(=N)N)C(=O)N[C@@H](CS)C(=O)N[C@@H](CCCNC(=N)N)C(=O)N[C@@H](CCCNC(=N)N)C(=O)O [Pal-LCE3B56-68] (HELM PEPTIDE1{[CCCCCCCCCCCCCCCC(=O)[*:2]].S.H.H.R.C.C.R.S.H.R.C.R.R}$$$$V2.0) : MIC, C. albicans ATCC 90028 was ≥1 µg/mL

====

# System: P. aeruginosa ATCC 10145
# assayProtocol: CFU-assay, P. aeruginosa-cidal activity
# Assay type: cell-based, Pseudomonas aeruginosa
# settings: pH 5.0, 0.25% glucose
No end group written: not given here.
MBC100 strictly under 0.3 mg/L means criterion met; at 0.3 mg/L or over means criterion not met.

primarySequence: GHHGGGGGHGGGHGGHGGGGGH (Modified peptide derived from human hornerin (HR 1-18 G+H)) [HR 1-18 G + H]
class: criterion met

Field: below-cutoff. Rule: recorded MBC100 strictly less than 0.3 mg/L. Subject: HGSRSGQSSRGERHGSSSGSSSH (Peptide derived from human hornerin (HR 1-11))
criterion not met

Is it true that MBC100 reported for SRRSSSLSRSSSRSSRSSSSSR (Modified peptide derived from human hornerin (HR 1-18 4H-4R/9G-9S)) is less than 0.3 mg/L?
criterion not met

Confirm or reject: MBC100 of GRRGSGLGRSSSRGGRGSGSGR [HR 1-18 4H-4R] lies strictly below 0.3 mg/L
criterion met

====

# maps each entry to its MBC100
# Tested on: P. aeruginosa ATCC 10145
# assayProtocol: CFU-assay, P. aeruginosa-cidal activity
# Assay type: cell-based, Pseudomonas aeruginosa
# settings: pH 5.5, 1% TSB
Marks after values point to notes of the source that are not given here.

substance: HR 2-8: CIDAMP tested alone and in 1:1 mixture with HR 1-8 HRNR2658-2677 (GSGSRQSPSYGR; Peptide derived from human hornerin (HR 2-8))
MBC100: >300 µg/mL

substance: GGSRSGQSSRGERHGSSSGSSSH (Modified peptide derived from human hornerin (HR 1-11 H1-GH2606G))) [HR 1-11 H1-G H2606G]
MBC100: >300* μg/ml

Lab note: HGSRSGQSSRGERHGSSSGSSSG (Modified peptide derived from human hornerin (HR 1-11 H3-G H2628G)) gave MBC100 of >300 µg/mL

MBC100 for HGSGSGQSSRGERHGSSSGSSSH (Modified peptide derived from human hornerin (HR 1-11 R1-G R2609G)) is >300* μg/ml

MBC100 for HGSRSGQSSGGGRHGSSSGSSSH (Modified peptide derived from human hornerin (HR 1-11 E-G E2617G)) is >300 µg/mL

So, GSGSRQSLSYGRHGSGSGR (Modified peptide derived from human hornerin (HR 2-4L HRNR 1132-1150 P1139L)) [HR 2-4L HRNR1132-1150 P1139L] ? Its MBC100 was >300 µg/mL
